// data source = patent US20240101570A1

Test system: HCT116 WT cells
Assay: HCT116 WT cell proliferation / viability (CellTiter-Glo, 6 days)
Type: cell-based
Conditions: Homo sapiens, HCT-116, 144 h, HCT116 WT cells, 6 days, CellTiter-Glo; read-out: HCT-116 WT IC50
property: IC50 (µM)

Example entries and their recorded answers appear below.
>  <compound>
C[C@H](c1ccc(C(F)(F)F)nn1)N(C)C(=O)c1ccc2nc(N)c3cnn(C)c3c2c1 (single isomer, unassigned)

>  <units>
µM

>  <IC50>
28.9

$$$$
>  <compound>
CN(Cc1ccc(C#N)cn1)C(=O)c1ccc2nc(N)c3c(c2c1)COC3

>  <units>
µM

>  <IC50>
51.6

$$$$
>  <compound>
C[C@@H](c1ncc(C(F)(F)F)cc1F)N(C)C(=O)c1cc2c(cc1F)nc(N)c1cnn(C)c12 (single isomer, unassigned)

>  <units>
µM

>  <IC50>
22.7

$$$$
>  <compound>
CCN(C(=O)c1ccc2nc(N)c3c(c2c1)CO[C@@H]3C)[C@H](C)c1ccc(C(F)(F)F)cn1

>  <units>
µM

>  <IC50>
1.38

$$$$

1: CCN(Cc1ccc(C(F)(F)F)cn1)C(=O)c1ccc2nc(N)c3c(cnn3C)c2c1
2: C[C@H](c1ccc(C(F)(F)F)nn1)N(C)C(=O)c1cc2c3c(c(N)nc2cc1F)COC3 (single isomer, unassigned)
Exercise: Larger number for IC50: 1 , or 2 ? Kindly give the label for the entry you pick.
Solution: 1

----------
System: HCT116 WT cells
Assay: HCT116 WT cell proliferation / viability (CellTiter-Glo, 6 days)
Format: cell-based
Details: Homo sapiens, HCT-116, 144 h, HCT116 WT cells, 6 days, CellTiter-Glo; read-out: HCT-116 WT IC50
property: IC50 (µM)

>  <compound>
CC(C)N(C(=O)c1cc2c3c(c(N)nc2cc1Cl)COC3)[C@@H](C)c1ccc(C(F)(F)F)cn1 (single isomer, unassigned)

>  <units>
µM

>  <IC50>
3.94

$$$$

P: CCN(Cc1ccc(C(F)(F)F)cn1)C(=O)c1ccc2nc(N)c3cnn(C)c3c2c1
Q: Cn1cc(N(Cc2ccc(C(F)F)cn2)C(=O)c2cc3c4c(c(N)nc3cn2)COC4)cn1
Exercise: Returns the identifier with the smallest measured IC50 among P and Q . Response format: the label of the selected entry.
Solution: P
(P: 0.976 µM, Q: 3.88 µM)

----------
Test system: HCT116 WT cells
Test: HCT116 WT cell proliferation / viability (CellTiter-Glo, 6 days)
Assay type: cell-based
Details: Homo sapiens, HCT-116, 144 h, HCT116 WT cells, 6 days, CellTiter-Glo; read-out: HCT-116 WT IC50
property: IC50

>  <compound>
C[C@H]1OCc2c1c(N)nc1ccc(C(=O)N(C)[C@@H](C)c3ccc(C(F)(F)F)cn3)cc21 (single isomer, unassigned)

>  <test_system>
HCT116 WT cells

>  <IC50>
> 50 µM

$$$$
>  <compound>
C[C@H]1OCc2c1c(N)nc1cnc(C(=O)N(C)Cc3ccc(C#N)cn3)cc21

>  <test_system>
HCT116 WT cells

>  <IC50>
> 10 µM

$$$$

Continue with the next compound.
Exercise: Form field: reported IC50 of `CCN(Cc1ccc(C(F)(F)F)nc1)C(=O)c1cc2c3c(c(N)nc2cn1)COC3`
Solution: > 10 µM

----------
Tested on: HCT116 WT cells
Test: HCT116 WT cell proliferation / viability (CellTiter-Glo, 6 days)
Assay type: cell-based
Conditions: Homo sapiens, HCT-116, 144 h, HCT116 WT cells, 6 days, CellTiter-Glo; read-out: HCT-116 WT IC50
pIC50: −log10 of the molar value.
property: pIC50

>  <molecule>
C[C@H](c1ncccc1F)N(Cc1ccc(C(F)(F)F)nn1)C(=O)c1ccc2nc(N)c3c(c2c1)COC3 [Example 442]

>  <value_measured>
6.75

$$$$

a: C[C@H]1OCc2c1c(N)nc1cnc(C(=O)N(C)Cc3ccc(C(F)(F)F)nn3)cc21 [Example 317]
b: CC(C)N(Cc1ccc(C(F)(F)F)nn1)C(=O)c1cc2c3c(c(N)nc2cc1Cl)COC3 [Example 394]
Exercise: Of a and b , which shows the smaller pIC50 value? Indicate which entry you chose by stating its label.
Solution: a

----------
Tested on: HCT116 WT cells
Assay: HCT116 WT cell proliferation / viability (CellTiter-Glo, 6 days)
Assay type: cell-based
Conditions: Homo sapiens, HCT-116, 144 h, HCT116 WT cells, 6 days, CellTiter-Glo; read-out: HCT-116 WT IC50
pIC50: −log10 of the molar value.
property: pIC50

As a guide, the following entries are already answered.
>  <compound>
C[C@H]1OCc2c1c(N)nc1cnc(C(=O)N(Cc3ccc(C(F)(F)F)cn3)CC3CC3)cc21

>  <value_measured>
6.20

$$$$
>  <compound>
CN(Cc1ccc(S(F)(F)(F)(F)F)cc1)C(=O)c1ccc2nc(N)c3cnn(C)c3c2c1

>  <value_measured>
5.43

$$$$
>  <compound>
C[C@H](c1ccc(C(F)(F)C(F)(F)F)cc1)N(C)C(=O)c1cc2c(cc1F)nc(N)c1cnn(C)c12

>  <value_measured>
6.87

$$$$
>  <compound>
C[C@H](c1ncccn1)N(Cc1ccc(C#N)cn1)C(=O)c1cc2c3c(c(N)nc2cn1)COC3

>  <value_measured>
5.43

$$$$
>  <compound>
Cn1cc(N(Cc2ccc(C(F)(F)F)cn2)C(=O)c2ccc3nc(N)c4c(cnn4C)c3c2)cn1

>  <value_measured>
5.20

$$$$

A: CN(Cc1ccc(C(F)(F)F)cn1)C(=O)c1cc2c(cc1C(F)(F)F)nc(N)c1cnn(C)c12
B: C[C@@H](c1ccc(F)cn1)N(C)C(=O)c1cc2c(cc1F)nc(N)c1cnn(C)c12 (single isomer, unassigned)
Exercise: Lowest pIC50? choose A or B Kindly state the label of the option you pick.
Solution: B

A: C[C@H](c1ncccc1F)N(Cc1ccc(C(F)(F)F)nn1)C(=O)c1cnc2nc(N)c3c(c2c1)CCC3
B: CN(Cc1ccc(C(F)(F)F)cn1)C(=O)c1ccc2nc(N)c3cnn(C)c3c2c1
Exercise: // returns A or B , whichever has the lower pIC50 Refer to your chosen entry by its label in the reply.
Solution: B
(B: 5.17, A: 5.92)

----------
System: HCT116 WT cells
Assay: HCT116 WT cell proliferation / viability (CellTiter-Glo, 6 days)
Assay type: cell-based
Conditions: Homo sapiens, HCT-116, 144 h, HCT116 WT cells, 6 days, CellTiter-Glo; read-out: HCT-116 WT IC50
property: IC50 (µM)

a: N#CC[C@@H](C1CC1)N(Cc1ccc(C#N)cn1)C(=O)c1ccc2nc(N)c3c(c2c1)COC3 (single isomer, unassigned)
b: CCOc1ccc(CN(C(=O)c2ccc3nc(N)c4c(c3c2)COC4)C23CC(C2)C3)nn1
c: CN(Cc1ccc(-c2cnn(C(F)(F)F)c2)nn1)C(=O)c1ccc2nc(N)c3cnn(C)c3c2c1
Exercise: Lab note: arrange the 3 molecules above from lowest to highest IC50. Put the labels in the requested order and write them down.
Solution: a, b, c

----------
Test system: HCT116 WT cells
Assay: HCT116 WT cell proliferation / viability (CellTiter-Glo, 6 days)
Format: cell-based
Details: Homo sapiens, HCT-116, 144 h, HCT116 WT cells, 6 days, CellTiter-Glo; read-out: HCT-116 WT IC50
property: IC50

Worked cases, IC50 given:
>  <compound>
C[C@@H]1OCc2c1c(N)nc1cnc(C(=O)N(C)Cc3ccc(C(F)(F)F)nn3)cc21

>  <IC50>
> 50 µM

$$$$
>  <compound>
CC(c1ccc(C(F)(F)F)cn1)N(C)C(=O)c1cnc2nc(N)c3c(c2c1)COC3 (racemic)

>  <IC50>
> 10 µM

$$$$
>  <compound>
CCOC1CC1N(Cc1ccc(C(F)(F)F)cn1)C(=O)c1ccc2nc(N)c3c(c2c1)COC3C (stereo not shown)

>  <IC50>
> 1 µM

$$$$

Exercise: Report IC50 for `COCC(C)(C)N(Cc1ccc(Br)nn1)C(=O)c1ccc2nc(N)c3c(c2c1)COC3` please.
Solution: > 10 µM

----------
In this section, each of the molecules is paired with its reported pIC50.
Tested on: HCT116 WT cells
Test: HCT116 WT cell proliferation / viability (CellTiter-Glo, 6 days)
Type: cell-based
Conditions: Homo sapiens, HCT-116, 144 h, HCT116 WT cells, 6 days, CellTiter-Glo; read-out: HCT-116 WT IC50
pIC50: −log10 of the molar value.

Here are 2 molecules together with their reported answers.
>  <molecule>
CC1OCc2c1c(N)nc1ccc(C(=O)N(C)Cc3ccc(C(F)(F)F)cn3)cc21 (stereo not shown)

>  <pIC50>
< 6.00

$$$$
>  <molecule>
CC(C)N(Cc1ccc(C2CC2)nc1)C(=O)c1cc2c3c(c(N)nc2cn1)[C@H](C)OC3

>  <pIC50>
< 5.00

$$$$

Exercise: Reported pIC50, molecule `C[C@H]1OCc2c1c(N)nc1ccc(C(=O)N(Cc3ccc(C(F)(F)F)nn3)C3CC3)cc21` : ____
Solution: < 5.00

Exercise: Report pIC50 for `COc1nc(CN(C(=O)c2cc3c4c(c(N)nc3cn2)COC4)C(C)C)ccc1Cl` please.
Solution: < 5.00
